# TESTED SYSTEM: human GlyT-1b transporter (Homo sapiens, UniProt P48067)
# Construct: expressed in transfected cells; host or cells: CHO cells, stably transfected (pcDNA3, Geneticin selection)
# Sequence (P48067 1-652 isoform P48067-3): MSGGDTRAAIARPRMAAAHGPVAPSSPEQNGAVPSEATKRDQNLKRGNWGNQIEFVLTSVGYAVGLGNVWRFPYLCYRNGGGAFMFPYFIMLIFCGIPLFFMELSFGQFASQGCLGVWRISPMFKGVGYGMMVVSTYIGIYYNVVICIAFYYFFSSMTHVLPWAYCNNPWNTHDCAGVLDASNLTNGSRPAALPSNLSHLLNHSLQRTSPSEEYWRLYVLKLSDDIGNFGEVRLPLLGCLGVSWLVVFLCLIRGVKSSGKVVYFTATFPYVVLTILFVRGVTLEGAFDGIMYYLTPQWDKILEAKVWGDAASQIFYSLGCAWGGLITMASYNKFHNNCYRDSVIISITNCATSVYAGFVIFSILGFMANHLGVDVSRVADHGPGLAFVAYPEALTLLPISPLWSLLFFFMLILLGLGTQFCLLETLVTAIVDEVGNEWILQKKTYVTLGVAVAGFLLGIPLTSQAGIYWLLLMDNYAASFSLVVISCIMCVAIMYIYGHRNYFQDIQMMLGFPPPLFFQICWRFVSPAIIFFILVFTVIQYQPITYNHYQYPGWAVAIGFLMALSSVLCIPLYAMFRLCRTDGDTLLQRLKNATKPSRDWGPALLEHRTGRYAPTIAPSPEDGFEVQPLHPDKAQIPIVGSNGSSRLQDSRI
# ASSAY EXPLANATION: Glycine uptake in CHO cells heterologously expressing the human GlyT-1b transporter ([3H]glycine uptake)
# Assay type: cell-based
# CONDITION SUMMARY: CHO cells stably expressing hGlyT-1b, 10 minutes, 37° C., read-out: Inhibition of glycine transport by hGlyT-1, pIC50 (converted)
// reported IC50 for each item listed
Give the number first and the unit second.

Query string: Return reported IC50; argument: COc1ccc(C2=CC3(CCN(CC(=O)O)CC3)Oc3ccccc32)cc1F
Result string: 631 nM

* * *

// reported melting point for each item listed
Where a name gives a salt, the structure may show the parent alone.

COMPOUND | melting point
C=CCOc1c(F)cc(C2=CC3(CCN(CC(=O)O)CC3)Oc3ccccc32)cc1F (as salt: hydrochloride) | 221 to 225 °C
O=C(O)CN1CCC2(C=C(c3ccc4ccccc4c3)c3ccccc3O2)CC1 (as salt: hydrochloride) | 253 to 264 °C
COc1ccc(C2=CC3(CCN(CC(=O)O)CC3)Oc3ccccc32)cc1F (as salt: hydrochloride) | 252 to 261 °C
O=C(O)CN1CCC2(C=C(c3cc(F)c(OCC(F)(F)F)c(F)c3)c3ccccc3O2)CC1 (as salt: hydrochloride) | 244 to 251 °C
CN(C)c1c(F)cc(C2=CC3(CCN(CC(=O)O)CC3)Oc3ccccc32)cc1F (as salt: hydrochloride) | 231 to 242 °C

Query string: Return reported melting point; argument: C#CCOc1c(F)cc(C2=CC3(CCN(CC(=O)O)CC3)Oc3ccccc32)cc1F (as salt: hydrochloride)
Result string: 211 to 217 °C

Query string: Return reported melting point; argument: CN(C)c1ccc(C2=CC3(CCN(CC(=O)O)CC3)Oc3ccccc32)cc1F (as salt: hydrochloride)
Result string: 231 to 239 °C

* * *

Where a name gives a salt, the structure may show the parent alone.
MEASURED PROPERTY: melting point

Some entries whose results are on file:
COMPOUND | melting point
O=C([O-])CN1CCC2(CC1)CC(c1ccc(F)cc1)c1ccccc1O2.[Li+] (centres unmarked) | 274 to 278 °C (dec.)
CCOC(=O)CN1CCC2(C=C(c3ccc(CC)cc3)c3ccccc3O2)CC1 | 119 to 121 °C
O=C([O-])CN1CCC2(C=C(c3ccccc3)c3cc(F)ccc3O2)CC1.[Li+] | 293 to 298 °C (dec.)
CN(C)c1ccc(C2=CC3(CCN(CC(=O)O)CC3)Oc3ccccc32)cc1 (as salt: hydrochloride) | 238 to 250 °C
O=C(O)CN1CCC2(C=C(c3ccc(Cl)cc3)c3ccccc3O2)CC1 (as salt: hydrochloride) | 259 to 265 °C
O=C([O-])CN1CCC2(C=C(c3ccc(F)cc3)c3ccccc3O2)CC1.[Li+] | 285 to 291 °C (dec.)
O=C([O-])CN1CCC2(C=C(c3ccccc3)c3ccccc3O2)CC1.[Li+] | 280 to 281 °C

Consider the additional compound presented here.
Query string: Return reported melting point; argument: O=C(O)CN1CCC2(C=C(c3ccc(Cl)c(F)c3)c3ccccc3O2)CC1 (as salt: hydrochloride)
Result string: 263 to 274 °C

* * *

# TESTED SYSTEM: human GlyT-1b transporter (Homo sapiens, UniProt P48067)
# Construct: expressed in transfected cells; host or cells: CHO cells, stably transfected (pcDNA3, Geneticin selection)
# ASSAY EXPLANATION: Glycine uptake in CHO cells heterologously expressing the human GlyT-1b transporter ([3H]glycine uptake)
# Format: cell-based
# CONDITION SUMMARY: CHO cells stably expressing hGlyT-1b, 10 minutes, 37° C., read-out: Inhibition of glycine transport by hGlyT-1, pIC50 (converted)
Rule: IC50 below 0.4 µM gives YES, anything at or above gives NO.

Check out these entries, answers already filled in.
ENTRY SMILES | CLASS ASSIGNMENT
C=CCOc1c(F)cc(C2=CC3(CCN(CC(=O)O)CC3)Oc3ccccc32)cc1F | YES
Cc1ccc(C2=CC3(CCN(CC(=O)O)CC3)Oc3cc(Cl)ccc32)cc1F | NO
O=C(O)CN1CCC2(C=C(c3ccc(Cl)cc3)c3ccccc3O2)CC1 | NO
O=C(O)CN1CCC2(C=C(c3cc(F)c(OCC(F)(F)F)c(F)c3)c3ccccc3O2)CC1 | YES
CCCCOc1ccc(C2=CC3(CCN(CC(=O)O)CC3)Oc3ccccc32)cc1F | NO
O=C(O)CN1CCC2(C=C(c3ccc4ccccc4c3)c3ccccc3O2)CC1 | NO
CN(C)c1ccc(C2=CC3(CCN(CC(=O)O)CC3)Oc3ccccc32)cc1 | NO
Cc1ccc(C2=CC3(CCN(CC(=O)O)CC3)Oc3ccccc32)cc1F | YES

Query string: Strictly below 0.4 µM in IC50? CCCOc1ccc(C2=CC3(CCN(CC(=O)O)CC3)Oc3ccccc32)cc1F
Result string: NO

Query string: Strictly below 0.4 µM in IC50? CN(C)c1c(F)cc(C2=CC3(CCN(CC(=O)O)CC3)Oc3ccccc32)cc1F
Result string: YES

Query string: Strictly below 0.4 µM in IC50? C#CCOc1c(F)cc(C2=CC3(CCN(CC(=O)O)CC3)Oc3ccccc32)cc1F
Result string: YES

Query string: Strictly below 0.4 µM in IC50? O=C(O)CN1CCC2(C=C(c3ccc(Cl)c(F)c3)c3ccccc3O2)CC1
Result string: NO

Query string: Strictly below 0.4 µM in IC50? O=C(O)CN1CCC2(C=C(c3ccc(Br)c(F)c3)c3ccccc3O2)CC1
Result string: NO

* * *

# TESTED SYSTEM: human GlyT-1b transporter (Homo sapiens)
# Construct: expressed in transfected cells; host or cells: CHO cells, stably transfected (pcDNA3, Geneticin selection)
# ASSAY EXPLANATION: Glycine uptake in CHO cells heterologously expressing the human GlyT-1b transporter ([3H]glycine uptake)
# Format: cell-based
# CONDITION SUMMARY: CHO cells stably expressing hGlyT-1b, 10 minutes, 37° C., read-out: Inhibition of glycine transport by hGlyT-1, pIC50 (converted)
MEASURED PROPERTY: IC50 (nM)
Please reply with the bare figure in nM and do not write the unit itself.

ENTRY SMILES | VALUE REPORTED
CC(C)(C)c1ccc(C2=CC3(CCN(CC(=O)O)CC3)Oc3ccccc32)cc1 | 398
CN(C)c1ccc(C2=CC3(CCN(CC(=O)O)CC3)Oc3ccccc32)cc1F | 398

Consider the additional molecule presented here.
Query string: Return reported IC50; argument: COc1c(F)cc(C2=CC3(CCN(CC(=O)O)CC3)Oc3ccccc32)cc1F
Result string: 398

Source: patent US6645973B1
